- Tested on: biotinyl-Leu-oxazolone
- assay-overview: self-aminoacylation, catalytic enhancement (BLO) (fold over background); higher = more active; k-Seq, kA / k0A0; sequences stand for … in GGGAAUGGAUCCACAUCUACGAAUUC…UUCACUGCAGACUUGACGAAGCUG
Fewer inactive variants are shown than the library holds.
outcome-measure: self-aminoacylation

>>> number("AAGUUUGCUAAUAGUAGCGAG [Fam3.1 aminoacylation ribozyme variant]")
0.962
>>> number("AAGUUUGCUAAUAGACGCACG [Fam3.1 aminoacylation ribozyme variant]")
0.365
>>> number("AUUACCCUGUUCAUCGGGUGA [Fam2.1 aminoacylation ribozyme variant]")
9.74
>>> number("AAGUUUGGUAAUAGUCGCAAC [Fam3.1 aminoacylation ribozyme variant]")
1.16
>>> number("AUUCACCUAGUUGAUCGGGUG [Fam2.2 aminoacylation ribozyme variant]")
4.3
>>> number("AUUCACCUAGGUCUUAGGGUG [Fam2.2 aminoacylation ribozyme variant]")
7.06
>>> number("AUUCACCUAGGUCAUGGGGUU [Fam2.2 aminoacylation ribozyme variant]")
1.52
>>> number("CUACAUCAAACAAUCGGUCUG [Fam1A.1 aminoacylation ribozyme variant]")
0.736
>>> number("AACUUAGCUAAUAGUCGCAAG [Fam3.1 aminoacylation ribozyme variant]")
3.27
>>> number("CCACCCGUCAAGCAAUCGGUC [Fam1B.1 aminoacylation ribozyme variant]")
1.12
>>> number("AAGUUUGGUAAUACUCGCAAG [Fam3.1 aminoacylation ribozyme variant]")
0.673
>>> number("AAUUUUGCUAAUAGUCGCAAU [Fam3.1 aminoacylation ribozyme variant]")
2.91

====

- System: biotinyl-Ile-oxazolone
- assay-overview: self-aminoacylation, catalytic enhancement (BIO) (fold over background); higher = more active; k-Seq, kA / k0A0; sequences stand for … in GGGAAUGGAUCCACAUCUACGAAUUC…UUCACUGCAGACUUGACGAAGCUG
Fewer inactive variants are shown than the library holds.
// label = YES if self-aminoacylation is not less than 1, otherwise NO

>>> group_label("AUUCACCAAGCUCAUCGGGUG [Fam2.2 aminoacylation ribozyme variant]")
"YES"
>>> group_label("AUUCACCUAGGUCAUCAAGUG [Fam2.2 aminoacylation ribozyme variant]")
"NO"
>>> group_label("CUACUUCAAGCAAUCGGGCUG [Fam1A.1 aminoacylation ribozyme variant]")
"YES"
>>> group_label("AGGUUUGCUAAUAGUCGCAAC [Fam3.1 aminoacylation ribozyme variant]")
"YES"
>>> group_label("CUACUGCAAACAAUCGGUCUC [Fam1A.1 aminoacylation ribozyme variant]")
"NO"
>>> group_label("CCACACUUCCAUCAAUCGGUC [Fam1B.1 aminoacylation ribozyme variant]")
"NO"
>>> group_label("CCACACUUCAAGAAAUCGCUC [Fam1B.1 aminoacylation ribozyme variant]")
"YES"
>>> group_label("CUACUUCAUAGAAUCGGUCUG [Fam1A.1 aminoacylation ribozyme variant]")
"NO"
>>> group_label("AUUACUCUGGUCAUCGAGUGC [Fam2.1 aminoacylation ribozyme variant]")
"YES"
>>> group_label("CCACACUUAAUGCAAUCGGUC [Fam1B.1 aminoacylation ribozyme variant]")
"NO"
>>> group_label("AAAUUUGCAAAUAGUCGCAAG [Fam3.1 aminoacylation ribozyme variant]")
"YES"
>>> group_label("AAGUUUGCCAAUAGUCGUAAG [Fam3.1 aminoacylation ribozyme variant]")
"NO"
>>> group_label("CCACACUUAAAUCAAUCGGUC [Fam1B.1 aminoacylation ribozyme variant]")
"NO"
>>> group_label("ACUACCCUGGUCAUCCAGUGA [Fam2.1 aminoacylation ribozyme variant]")
"YES"
>>> group_label("CUACAUCAAACAAUCUGUCUG [Fam1A.1 aminoacylation ribozyme variant]")
"NO"
>>> group_label("CUUCUUCAAGCAAUCGGUCUG [Fam1A.1 aminoacylation ribozyme variant]")
"NO"
>>> group_label("AUUCACCUAGGUCAACGGGGG [Fam2.2 aminoacylation ribozyme variant]")
"YES"

====

- Test system: biotinyl-Trp-oxazolone
- assay-overview: self-aminoacylation, catalytic enhancement (BWO) (fold over background); higher = more active; k-Seq, kA / k0A0; sequences stand for … in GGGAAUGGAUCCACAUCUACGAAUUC…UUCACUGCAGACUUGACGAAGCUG
This sample holds only a part of the variants without activity.
Below, each entry is listed alongside its reported self-aminoacylation.
outcome-measure: self-aminoacylation

>>> result("AUUCAUCUAGGUCCUCGGGUG [Fam2.2 aminoacylation ribozyme variant]")
5.66
>>> result("AAUCACCUAGGUCUUCGGGUG [Fam2.2 aminoacylation ribozyme variant]")
6.75
>>> result("AUUCACCUAGGUCAUCGGGCG [Fam2.2 aminoacylation ribozyme variant]")
5.66
>>> result("AUCACCCUGGUCAUCAAGUGA [Fam2.1 aminoacylation ribozyme variant]")
4.8
>>> result("AUGAUUGCUAAUAGUCGCAAG [Fam3.1 aminoacylation ribozyme variant]")
1.61
>>> result("AUUUACCGAGGUCAUCGGGUG [Fam2.2 aminoacylation ribozyme variant]")
6.88
>>> result("CCUCACUUCAAGCAAUCGCUC [Fam1B.1 aminoacylation ribozyme variant]")
0.912
>>> result("CUACUUCAAACAAUAGGUCUG [Fam1A.1 aminoacylation ribozyme variant]")
0.617
>>> result("AUUCACCUAGGUCAUCGGGCA [Fam2.2 aminoacylation ribozyme variant]")
2.81
>>> result("CUACUUCAAUCAAUCGGUCUA [Fam1A.1 aminoacylation ribozyme variant]")
7.18
>>> result("AUUCAUCUAGGUCUUCGGGUG [Fam2.2 aminoacylation ribozyme variant]")
4.84
>>> result("AAGUCUGCUAAUAGUCACAAG [Fam3.1 aminoacylation ribozyme variant]")
3.73
>>> result("AUUACCCUGUUCGUCGAGUGA [Fam2.1 aminoacylation ribozyme variant]")
1.44
>>> result("CGACACUUCAAGCAAACGGUC [Fam1B.1 aminoacylation ribozyme variant]")
0.612
>>> result("CCACACUUCAAGCAUUAGGUC [Fam1B.1 aminoacylation ribozyme variant]")
0.516
>>> result("AUUCACCAAGGUCAUCCGGUG [Fam2.2 aminoacylation ribozyme variant]")
7.89
>>> result("AAGUUUAUUAAUAGUCGCAAG [Fam3.1 aminoacylation ribozyme variant]")
1.94
>>> result("AAGUUUGCCAAUGGUCGCAAG [Fam3.1 aminoacylation ribozyme variant]")
1.01
>>> result("CUACUUCAAACAAAGGGUCUG [Fam1A.1 aminoacylation ribozyme variant]")
0.669
>>> result("CCACACUUCAAGGACUCGGUC [Fam1B.1 aminoacylation ribozyme variant]")
1.13
>>> result("GUACGUCAAACAAUCGGUCUG [Fam1A.1 aminoacylation ribozyme variant]")
2.71
>>> result("AUUCACCUCGGUCAUCGCGUG [Fam2.2 aminoacylation ribozyme variant]")
12.9
>>> result("CUACUUCAAGAAAUCGGUCUG [Fam1A.1 aminoacylation ribozyme variant]")
3.05
>>> result("AUUACCGUCGUCAUCGAGUGA [Fam2.1 aminoacylation ribozyme variant]")
3.88
>>> result("CCUCACUUCAAGCAAUUGGUC [Fam1B.1 aminoacylation ribozyme variant]")
0.673
>>> result("AUUCACCUAGUUCUUCGGGUG [Fam2.2 aminoacylation ribozyme variant]")
2.9
>>> result("ACUACCCUGGUCAUCGAGUUA [Fam2.1 aminoacylation ribozyme variant]")
3.55

====

The reader will find reported self-aminoacylation values listed item by item below.
- System: biotinyl-Ile-oxazolone
- assay-overview: self-aminoacylation, catalytic enhancement (BIO) (fold over background); higher = more active; k-Seq, kA / k0A0; sequences stand for … in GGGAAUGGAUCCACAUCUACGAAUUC…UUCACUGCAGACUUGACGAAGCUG
This sample holds only a part of the variants without activity.
outcome-measure: self-aminoacylation

>>> number("CUACUUCACGCAAUCGGUCUG [Fam1A.1 aminoacylation ribozyme variant]")
0.837
>>> number("AUUCACAUAAGUCAUCGGGUG [Fam2.2 aminoacylation ribozyme variant]")
7.61
>>> number("AGUACCCUGGUCAGCGAGUGA [Fam2.1 aminoacylation ribozyme variant]")
3.51
>>> number("AAGUGUUCUAAUAGUCGCAAG [Fam3.1 aminoacylation ribozyme variant]")
1.6
>>> number("AUUCACCUAGGUCGUCGCGUG [Fam2.2 aminoacylation ribozyme variant]")
3.52
>>> number("CUACUUCAAGCCAUCGGUCUG [Fam1A.1 aminoacylation ribozyme variant]")
0.89

====

- Test system: biotinyl-Met-oxazolone
- assay-overview: self-aminoacylation, catalytic enhancement (BMO) (fold over background); higher = more active; k-Seq, kA / k0A0; sequences stand for … in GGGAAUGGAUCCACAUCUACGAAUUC…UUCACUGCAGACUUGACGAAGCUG
Variants at the floor of the assay were thinned out.
Would you mind labelling by self-aminoacylation? At or over 3 is YES, under is NO.

>>> group_label("AGACACUUCAAGCAAUCGGUC [Fam1B.1 aminoacylation ribozyme variant]")
"NO"
>>> group_label("AAUCACAUAGGUCAUCGGGUG [Fam2.2 aminoacylation ribozyme variant]")
"YES"
>>> group_label("AUUCGCCUAGGUCACCGGGUG [Fam2.2 aminoacylation ribozyme variant]")
"YES"
>>> group_label("CCACACUUAUAGCAAUCGGUC [Fam1B.1 aminoacylation ribozyme variant]")
"NO"
>>> group_label("CCACACUUCAAGCAAUCGACC [Fam1B.1 aminoacylation ribozyme variant]")
"NO"
>>> group_label("CUACUUCACGCAAUCGGUCUG [Fam1A.1 aminoacylation ribozyme variant]")
"NO"
>>> group_label("CUUACCCUGGUCAUCGAGUAA [Fam2.1 aminoacylation ribozyme variant]")
"YES"
>>> group_label("AUUACCGCGGUCAUCGAGUGA [Fam2.1 aminoacylation ribozyme variant]")
"YES"
>>> group_label("AUUACCCUGGUCAUUGAGCGA [Fam2.1 aminoacylation ribozyme variant]")
"NO"
>>> group_label("AUUACCCUGGUCAACGGGUGA [Fam2.1 aminoacylation ribozyme variant]")
"YES"
>>> group_label("AUUACCCAGGUCAUUGAGUGA [Fam2.1 aminoacylation ribozyme variant]")
"YES"
>>> group_label("CCACACCUCAAGCAAUCGGUC [Fam1B.1 aminoacylation ribozyme variant]")
"NO"
>>> group_label("CGACACUUCAAGCAAACGGUC [Fam1B.1 aminoacylation ribozyme variant]")
"NO"
>>> group_label("CUACAUCAAAUAAUCGGUCUG [Fam1A.1 aminoacylation ribozyme variant]")
"NO"
>>> group_label("CUUAGCCUGGUCAUCGAGUGA [Fam2.1 aminoacylation ribozyme variant]")
"NO"
